System name: Gal(b1-3)GlcNAc
Protocol notes: glycan array binding signal (z-score within array); higher = stronger binding
Condition set: glycan notation: IUPAC condensed, linker removed
Many of the other results were omitted from the sample, so the strongest signals are more common in it than they were.
Quantity measured: glycan array binding signal (z-score)
The answer should be written as a number, with no unit following it.

Recorded glycan array binding signal (z-score) for CBP21 (Serratia marcescens), O83009 (protein) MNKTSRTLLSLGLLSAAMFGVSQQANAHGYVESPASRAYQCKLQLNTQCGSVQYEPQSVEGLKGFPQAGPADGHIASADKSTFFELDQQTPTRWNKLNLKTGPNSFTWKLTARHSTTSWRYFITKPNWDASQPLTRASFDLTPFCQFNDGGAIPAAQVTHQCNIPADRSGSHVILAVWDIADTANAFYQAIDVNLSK , please?
-0.226

Recorded glycan array binding signal (z-score) for rPitB (Streptococcus pneumoniae), A0A0I7U739 (protein) MSEIEIINAKKIYHDVPVIENLNITIPKGSLFTLLGASGCGKTTLLRMIAGFNSIKDGEFYFDDTKINNMEPSKRNIGLVFQNYAIFPHLTVRDNVAFGLMQKKVPKEELIQQTNKYLELMQIAQYAD , please?
-0.704

Recorded glycan array binding signal (z-score) for Epa3to2 (Candida glabrata) (protein) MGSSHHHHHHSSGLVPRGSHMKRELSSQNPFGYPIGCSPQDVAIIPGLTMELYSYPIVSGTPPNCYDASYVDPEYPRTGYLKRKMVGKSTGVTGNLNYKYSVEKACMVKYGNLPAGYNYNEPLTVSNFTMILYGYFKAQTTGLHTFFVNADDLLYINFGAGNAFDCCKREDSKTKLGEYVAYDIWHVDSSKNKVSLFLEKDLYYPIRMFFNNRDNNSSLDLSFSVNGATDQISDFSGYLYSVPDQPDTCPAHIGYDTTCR , please?
-0.751

Recorded glycan array binding signal (z-score) for SJCP1531 (Schistosoma japonicum) (protein) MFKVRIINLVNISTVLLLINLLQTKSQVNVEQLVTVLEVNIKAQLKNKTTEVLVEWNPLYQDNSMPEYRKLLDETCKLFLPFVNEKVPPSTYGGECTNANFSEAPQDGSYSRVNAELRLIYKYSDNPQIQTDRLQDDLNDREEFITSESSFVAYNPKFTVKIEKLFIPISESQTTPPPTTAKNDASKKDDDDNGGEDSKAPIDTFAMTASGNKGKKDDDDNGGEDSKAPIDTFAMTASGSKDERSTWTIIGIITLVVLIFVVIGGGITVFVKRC , please?
0.101

Recorded glycan array binding signal (z-score) for Epa3 (Candida glabrata), Q6VBI8_CANGB (protein) MGSSHHHHHHSSGLVPRGSHMNDLGFSLFEKRELSSQNPFGYPIGCSPQDVAIIPGLTMELYSYPIVSGTPPNCYDASYVDPEYPRTGYLKRKMVGKSTGVTGNLNYKYSVEKACMVKYGNLPAGYNYNEPLTVSNFTMILYGYFKAQTTGLHTFFVNADDLLYINFGAGNAFDCCKREDSKTKLGEYVAYDIWHVDSSKNKVSLFLEKDLYYPIRMFFNNIGKDSSLDLSFSVNGATDQISDFSGYLYSVPDQPDTCPAHIGYDTTCR , please?
-0.202

Recorded glycan array binding signal (z-score) for Epa20 (Candida glabrata) (protein) MGSSHHHHHHSSGLVPRGSHMASSNIPNNYPLGCSNKYSGHLPGLKMELYSYNYVNPRHPDPQNPGKLDQLYDPNLLGTYECFDSSYKDINYPRVGYKSKTLIGRSDGVSGILNFNFVPPWGCMPQKGQLPPAYNFKSNITLSNFTMILFGYFKPKISGNHIFSLHGDDLIYLNFGAGNAFDCCRQESSADNFGNYQAFSLWGINWEKKTLTVYLDMNTYYPIRIFYNNRDYQAIFNFSFKTEFDSSPVIDFQDYFFFLRDIDGGCPGEV , please?
-0.446

Recorded glycan array binding signal (z-score) for Pwp1 (Candida glabrata) (protein) MGSSHHHHHHSSGLVPRGSHMASANPISITNVCQFPDNWARTAGFQATTVRLGLTIASNTYKELLNYPGLFNFATQKATVTQPNFSISGFPFFTGLYGLTVWPINLLVELQGYFVPPESGNYTFTLQGSDDAAILFFANPSTFACGSQNDWPQPREADITVTDTLVPSRTLYLVKGVAYPIRIAYYNGSGDGKLNVSFKDPSGTTHTDWKGYVWQYSNTCSTCTYT , please?
0.448

Recorded glycan array binding signal (z-score) for AcfC (Vibrio cholerae), Q57410 (protein) MKSKNRFLLISLLSFSTSVFADVNLYGPGGPHVPLIKVAESFEKSQSKRVNITFGPQATWNDKAKKNADILFGASEHSALAIAEGHSERFSKFNIHPVFMREAIILVKKGNPKNIKGMADLLKPGIGIVVNDGAGVSNTSGTAVWEDSVGRMKNVEKLQAFRSNIHVFAPNSGSARKAFVDGEDIDAWITWVDWAIANPTIGDMVRMEDEYRIYRDFNVVLAKNPSSEAIDFFDYLTKSKDAEAIFQHYGWFK , please?
0.247

Recorded glycan array binding signal (z-score) for Tp0751, 83732 (protein) MSYYHHHHHHLESTSLYKKAGFQHGHVPPRRIPPHDTFGALPTAALPSNARDTAAHPSDTADNTSGSSTTTDPRSHGNAPPAPVGGAAQTHTQPPVQTAMRIALWNRATHGEQGALQHLLAGLWIQTEISPNSGDIHPLLFFDREHAEITFSRASVQEIFLVDSAHTHRKTVSFLTRNTAISSIRRRLEVTFESHEVIHVRAVEDVARLKIGSTSMWDGQYTRYHAGPASAPSP , please?
-0.323

Recorded glycan array binding signal (z-score) for SBD (Rhizopus oryzae), P07683 (protein) ASIPSSASVQLDSYNYDGSTFSGKIYVKNIAYSKKVTVVYADGSDNWNNNGNIIAASFSGPISGSNYEYWTFSASVKGIKEFYIKYEVSGKTYYDNNNSANYQVS , please?
0.042

Recorded glycan array binding signal (z-score) for CBM32-1 (Clostridium perfringens) (protein) MGSSHHHHHHSSGLVPRGSHMASGVEITEGVTVTAKGNTEGNTADLAIDGDLSTYWESSNDYKWIEVDLGGIYELSKIEIFNKDEAVYKYNIYASEDGENFNKIAYKNNDNVSDSNGNVHTIDNVRAGKIRIDVVQNSNSDRVNIAEINVFG , please?
-0.333
